Hey, just so you know, these numbers are from PubChem BioAssay (NCI).

Assay: NCI Yeast Anticancer Drug Screen. Data for the wt2 strain (AID 169);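 also: 0% = growth of vehicle-treated yeast cultures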
Settings: S. cerevisiae wt2 strain growth inhibition; at 11.0 µM
About 79,000 compounds went through this panel and 15% of them were active in at least one assay; those are over-represented in the sample as a whole. Calls of active or inactive are those of the source. Rule as the data show it: active = growth inhibition above about 70%; inactive = the rest.
API: response.call in True = active, False = inactive

// query Entry O=C1OC(OC/C(Br)=C(\Br)COC2OC(=O)C(Cl)=C2Cl)C(Cl)=C1Cl (stereo unspecified) : call = ?
// result False

// query Entry CC1=C(C(=O)NCc2ccccc2)C(c2ccccc2)C(C(=O)NCc2ccccc2)=C(C)N1 : call = ?
// result False

// query Entry O=[N+]([O-])c1cccc2nc3ccccc3c(NCCCn3ccnc3[N+](=O)[O-])c12 : call = ?
// result False

// query Entry CCOC(=N)c1ccc(O)c(OC)c1 : call = ?
// result False

// query Entry O=C1/C(=C/c2ccccc2)CCCC1CN1CCCCC1 (stereo unspecified) : call = ?
// result False

// query Entry COc1ccc(N=CN(C)C)c(C)c1 : call = ?
// result False

// query Entry Cc1ccccc1N=Cc1cc(Cl)ccc1O : call = ?
// result False

// query Entry COc1ccc(NC(=O)CC2SC(=Nc3ccccc3C)NC2=O)c([N+](=O)[O-])c1 (stereo unspecified) : call = ?
// result False

// query Entry CS(=O)(=O)SCc1ccc([N+](=O)[O-])cc1 : call = ?
// result False

// query Entry CCC(=O)c1cc(C(=O)C(=S)SC)cc(C(=O)C(=S)SC)c1 : call = ?
// result True

// query Entry CC(C)(CCCCC(C)(C)[N+](C)(C)C)[N+](C)(C)C : call = ?
// result False

---

Experiment: NCI Yeast Anticancer Drug Screen. Data for the cln2 rad14 strain (AID 165);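 also: 0% = growth equal to vehicle treated cultures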
Conditions: S. cerevisiae cln2 rad14 strain, at 5.0 µM (retest, dose inferred, filed as 0.5), stronger effect = higher value
Compounds without any hit were thinned out: in the full panel of roughly 79,000, 15% have a hit.
experimental_endpoint: growth inhibition (%)
Only the number, expressed in %, is required.

// query For the compound O=C(NCCCNCCN1C(=O)c2cccc3cc([N+](=O)[O-])cc(c23)C1=O)c1cc(-c2ccccc2)nc2ccccc12 , give its measured growth inhibition value.
// result 33

// query For the compound CCCCC/C(=C(\C#N)C(=O)OCC)c1ccccc1 , give its measured growth inhibition value.
// result -7

// query For the compound CCOC(=O)c1cc([N+](=O)[O-])c(Sc2ncnc3nc[nH]c23)c([N+](=O)[O-])c1 , give its measured growth inhibition value.
// result -5

// query For the compound CNC(=O)OCc1c(COC(=O)NC)c2n(c1C)-c1ccc(OC)cc1CCC2 , give its measured growth inhibition value.
// result 45

// query For the compound CCCCCCOC(=O)NCCOC(=O)Nc1ccccc1 , give its measured growth inhibition value.
// result 5

// query For the compound COc1cc(C2c3cc4c(cc3OC(OC(C)=O)C2C)OCO4)cc(OC)c1OC (stereo not given) , give its measured growth inhibition value.
// result -14

// query For the compound CCOC(=O)/C(=C\c1ccc(C#N)cc1)C(C)=O , give its measured growth inhibition value.
// result 13

// query For the compound CCC(C)OC(=O)Nc1ccc(C)c(NC(=O)OC(C)CC)c1 (stereo not given) , give its measured growth inhibition value.
// result -4

// query For the compound O=C1NC(SSC2=NNC3(C(=O)N2)c2ccccc2-c2ccccc23)=NNC12c1ccccc1-c1ccccc12 , give its measured growth inhibition value.
// result 0

// query For the compound CC(C)(C)c1ccc(NS(=O)(=O)c2ccc(N)cc2)cc1 , give its measured growth inhibition value.
// result 34
